biological target: T1, HLA-A*24:02 molecule; assay: flow cytometry, C1R-A24 cells;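 note: Read-out was the amount of peptide–MHC complex on each cell, taken as the fluorescence intensity of a bound fluorescent antibody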
T1 construct: MHC class I molecule on C1R-A24 cells, endogenous peptide and b2m stripped at pH 3.3, purified b2m added back; also called product of an HLA-A*24:02 gene; allele A*24:02
METRIC: log10 Kd (M)

binder="ALAPPTAQL (synthetic 9-mer derived from c-Myb) [peptide of SEQ ID NO: 6]" assay_result=-5.33
binder="YFFTVIFSF (synthetic 9-mer derived from Fas) [peptide of SEQ ID NO: 44]" assay_result=-6.77
binder="YTYDPPTTI (synthetic 9-mer derived from CADM1) [peptide of SEQ ID NO: 3]" assay_result=-5.51
binder="LMEEHGATL (synthetic 9-mer derived from EVC2) [peptide of SEQ ID NO: 13]" assay_result=-5.22
binder="FIDSDSSSW (synthetic 9-mer derived from c-Myb) [peptide of SEQ ID NO: 57]" assay_result=-4.7

(A) VMSHHGEKL (synthetic 9-mer derived from Helios; also called A13) [peptide of SEQ ID NO: 19]
(B) CDLSSFEFF (synthetic 9-mer derived from c-Myb) [peptide of SEQ ID NO: 58]
I'm curious, which of these has a smaller log10 Kd (M) number: A or B ? Select an item and report its label.
A

(A) TVLVPPRNL (synthetic 9-mer derived from CADM1) [peptide of SEQ ID NO: 48]
(B) ATAPPTAQL (synthetic 9-mer derived from c-Myb) [peptide of SEQ ID NO: 25]
I'm curious, which of these has a smaller log10 Kd (M) number: A or B ? Select an item and report its label.
A
